The molecules listed here are annotated with their Aqueous solubility.
- protocol: Aqueous solubility
- Assay type: physicochemical
- test parameters: McIlvaine buffer pH 6.8, 2.5% DMSO, 24 h shaking
Express your answer in µg/mL, writing the number without its unit.

Reference set (2 entries):
## Input Return reported Aqueous solubility. Input molecule: N#Cc1ccc(C2C3=C(CCC3=O)N(c3cccc(C(F)(F)F)c3)C(=O)N2C(=O)N[C@H]2COC[C@H]2O)cc1 (stereo partly drawn)
## Output 67

## Input Return reported Aqueous solubility. Input molecule: CNC(=O)N1C(=O)N(c2cccc(C(F)(F)F)c2)C2=C(C(=O)CC2)[C@H]1c1ccc(C#N)cc1S(C)(=O)=O
## Output 83

New cases:
## Input Return reported Aqueous solubility. Input molecule: N#Cc1ccc(C2C3=C(CCC3=O)N(c3cccc(C(F)F)c3)C(=O)N2C(=O)NCCO)cc1 (stereo not drawn)
## Output 91

---

- protocol: Aqueous solubility
- Type: physicochemical
- test parameters: aqueous buffer, kinetic from dmso stock; McIlvaine buffer pH 6.8, 2.5% DMSO, 24 h shaking
reported metric: solubility at 24 h
State the result as a value with its unit after it.

## Input Return reported solubility at 24 h. Input compound: N#Cc1ccc([C@@H]2C3=C(CCC3=O)N(c3cccc(C(F)(F)F)c3)C(=O)N2C(=O)NC2CCS(=O)(=O)CC2)cc1
## Output 10 µg/mL

---

The molecules listed here are annotated with their PEBA.
- Test system: Caco-2 cells
- protocol: Drug transport across human Caco-2 cells
- Format: in vitro ADME
- test parameters: basal-to-apical, Caco-2 monolayers, pH 7.2, 37° C.
Express your answer in ×10⁻⁶ cm/s, writing the number without its unit.

Reference set (5 entries):
## Input Return reported PEBA. Input molecule: N#Cc1ccc(C2C3=C(CCC3=O)N(c3cccc(C(F)(F)F)c3)C(=O)N2C(=O)NC2(CO)CC2)cc1 (stereo not drawn)
## Output 77

## Input Return reported PEBA. Input molecule: CCNC(=O)N1C(=O)N(c2cccc(C(F)F)c2)C2=C(C(=O)CC2)C1c1ccc(C#N)cc1 (stereo not drawn)
## Output 80.3

## Input Return reported PEBA. Input molecule: CCNC(=O)N1C(=O)N(c2cccc(C(F)(F)F)c2)C2=C(C(=O)CC2)[C@H]1c1ccc(C#N)cc1S(C)(=O)=O
## Output 84.5

## Input Return reported PEBA. Input molecule: CNC(=O)N1C(=O)N(c2cccc(C(F)F)c2)C2=C(C(=O)CC2)C1c1ccc(C#N)cc1 (stereo not drawn)
## Output 58.3

## Input Return reported PEBA. Input molecule: CC(C)(O)CNC(=O)N1C(=O)N(c2cccc(C(F)F)c2)C2=C(C(=O)CC2)C1c1ccc(C#N)cc1 (stereo not drawn)
## Output 62.7

We now examine a further molecule.
## Input Return reported PEBA. Input molecule: N#Cc1ccc(C2C3=C(CCC3=O)N(c3cccc(C(F)(F)F)c3)C(=O)N2C(=O)N[C@H]2CCC[C@@H]2O)cc1 (stereo partly drawn)
## Output 78

---

- protocol: in vitro
- test parameters: human, microsomes, pH 7.6
reported metric: half-life at 1 μM

## Input Return reported half-life at 1 μM. Input compound: N#Cc1ccc([C@@H]2C3=C(CCC3=O)N(c3cccc(C(F)(F)F)c3)C(=O)N2C(=O)NC2CCS(=O)(=O)CC2)cc1
## Output > 2.17 h

---

The compounds listed here are annotated with their CL (predicted human hepatic in vivo blood clearance).
- protocol: Metabolic stability with human hepatocytes
- Format: in vitro ADME
- test parameters: human hepatocyte suspension, 1 μM, scaled by well stirred model
Express your answer in mL/min/kg, writing the number without its unit.

Reference set (3 entries):
## Input Return reported CL (predicted human hepatic in vivo blood clearance). Input compound: CN1C(=O)N(c2cccc(C(F)(F)F)c2)C2=C(C(=O)CC2)[C@H]1c1ccc(C#N)cc1S(C)(=O)=O
## Output 2

## Input Return reported CL (predicted human hepatic in vivo blood clearance). Input compound: CS(=O)(=O)N1C(=O)N(c2cccc(C(F)(F)F)c2)C2=C(C(=O)CC2)[C@H]1c1ccc(C#N)cc1
## Output 0

## Input Return reported CL (predicted human hepatic in vivo blood clearance). Input compound: CCNC(=O)N1C(=O)N(c2cccc(C(F)(F)F)c2)C2=C(C(=O)CC2)[C@H]1c1ccc(C#N)cc1S(C)(=O)=O
## Output 1

We now examine a further compound.
## Input Return reported CL (predicted human hepatic in vivo blood clearance). Input compound: CS(=O)(=O)c1cc(C#N)ccc1[C@H]1NC(=O)N(c2cccc(C(F)(F)F)c2)C2=C1C(=O)CC2 [example 10A]
## Output 0

---

- protocol: Aqueous solubility
- Type: physicochemical
- test parameters: McIlvaine buffer pH 6.8, 2.5% DMSO, 24 h shaking
reported metric: Aqueous solubility (µg/mL)
Express your answer in µg/mL, writing the number without its unit.

## Input Return reported Aqueous solubility. Input compound: N#Cc1ccc(C2C3=C(CCC3=O)N(c3cccc(C(F)(F)F)c3)C(=O)N2C(=O)N[C@H]2CCC[C@@H]2O)cc1 (stereo partly shown)
## Output 21

## Input Return reported Aqueous solubility. Input compound: N#Cc1ccc([C@@H]2C3=C(CCC3=O)N(c3cccc(C(F)(F)F)c3)C(=O)N2C(=O)N[C@H]2CCC[C@@H]2O)cc1
## Output 28

## Input Return reported Aqueous solubility. Input compound: CC(C)(O)CNC(=O)N1C(=O)N(c2cccc(C(F)F)c2)C2=C(C(=O)CC2)C1c1ccc(C#N)cc1 (stereo not shown)
## Output 70

## Input Return reported Aqueous solubility. Input compound: CS(=O)(=O)c1cc(C#N)ccc1C1C2=C(CCC2=O)N(c2cccc(C(F)F)c2)C(=O)N1C(=O)NC1CC1 (stereo not shown)
## Output 34

## Input Return reported Aqueous solubility. Input compound: CCNC(=O)N1C(=O)N(c2cccc(C(F)F)c2)C2=C(C(=O)CC2)C1c1ccc(C#N)cc1 (stereo not shown)
## Output 16

New cases:
## Input Return reported Aqueous solubility. Input compound: CS(=O)(=O)CCNC(=O)N1C(=O)N(c2cccc(C(F)(F)F)c2)C2=C(C(=O)CC2)C1c1ccc(C#N)cc1F (stereo not shown)
## Output 32

## Input Return reported Aqueous solubility. Input compound: CCNC(=O)N1C(=O)N(c2cccc(C(F)(F)F)c2)C2=C(C(=O)CC2)[C@H]1c1ccc(C#N)cc1S(C)(=O)=O
## Output 45

## Input Return reported Aqueous solubility. Input compound: N#Cc1ccc([C@@H]2C3=C(CCC3=O)N(c3cccc(C(F)(F)F)c3)C(=O)N2C(=O)N[C@H]2COC[C@@H]2O)cc1
## Output 56

## Input Return reported Aqueous solubility. Input compound: N#Cc1ccc(C2C3=C(CCC3=O)N(c3cccc(C(F)(F)F)c3)C(=O)N2C(=O)N[C@@H]2CCC[C@H]2O)cc1 (stereo partly shown)
## Output 20

## Input Return reported Aqueous solubility. Input compound: CC(C)NC(=O)N1C(=O)N(c2cccc(C(F)(F)F)c2)C2=C(C(=O)CC2)[C@H]1c1ccc(C#N)cc1S(C)(=O)=O
## Output 16

## Input Return reported Aqueous solubility. Input compound: CS(=O)(=O)c1cc(C#N)ccc1[C@@H]1C2=C(CCC2=O)N(c2cccc(C(F)(F)F)c2)C(=O)N1C(=O)NC1CC1
## Output 19

## Input Return reported Aqueous solubility. Input compound: CC(C)NC(=O)N1C(=O)N(c2cccc(C(F)F)c2)C2=C(C(=O)CC2)C1c1ccc(C#N)cc1S(C)(=O)=O (stereo not shown)
## Output 14

## Input Return reported Aqueous solubility. Input compound: CNC(=O)N1C(=O)N(c2cccc(C(F)F)c2)C2=C(C(=O)CC2)C1c1ccc(C#N)cc1 (stereo not shown)
## Output 41

---

- measured on: neutrophil elastase (Homo sapiens (Human), UniProt P08246)
- Sequence (P08246 30-247): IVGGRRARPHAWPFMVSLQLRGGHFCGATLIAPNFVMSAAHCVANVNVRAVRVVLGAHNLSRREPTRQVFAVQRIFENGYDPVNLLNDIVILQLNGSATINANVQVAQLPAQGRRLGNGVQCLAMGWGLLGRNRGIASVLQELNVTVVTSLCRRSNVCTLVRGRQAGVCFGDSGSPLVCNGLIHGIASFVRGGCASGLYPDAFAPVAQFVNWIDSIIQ
- protocol: Neutrophil elastase inhibitory activity in human plasma
- test parameters: zymosan-stimulated human plasma, substrate MeOSuc-Ala-Ala-Pro-Val-AMC 250 μM
reported metric: EC50
State the result as a value with its unit after it.

## Input Return reported EC50. Input compound: N#Cc1ccc([C@@H]2C3=C(CCC3=O)N(c3cccc(C(F)(F)F)c3)C(=O)N2C(=O)NC2CCS(=O)(=O)CC2)cc1 [Example 46]
## Output 1 nM

---

- protocol: Metabolic stability with human hepatocytes
- Assay type: in vitro ADME
- test parameters: human hepatocyte suspension, 1 μM, scaled by well stirred model
The compounds listed here are annotated with their CL (predicted human hepatic in vivo blood clearance).
Express your answer in mL/min/kg, writing the number without its unit.

Reference set (5 entries):
## Input Return reported CL (predicted human hepatic in vivo blood clearance). Input compound: CS(=O)(=O)c1cc(C#N)ccc1[C@@H]1C2=C(CCC2=O)N(c2cccc(C(F)(F)F)c2)C(=O)N1CC#N
## Output 0

## Input Return reported CL (predicted human hepatic in vivo blood clearance). Input compound: CNC(=O)N1C(=O)N(c2cccc(C(F)(F)F)c2)C2=C(C(=O)CC2)C1c1ccc(C#N)cn1 (stereo not shown)
## Output 1

## Input Return reported CL (predicted human hepatic in vivo blood clearance). Input compound: N#Cc1ccc(C2C3=C(CCC3=O)N(c3cccc(C(F)(F)F)c3)C(=O)N2CC(=O)N2CCC2)cc1 (stereo not shown)
## Output 4

## Input Return reported CL (predicted human hepatic in vivo blood clearance). Input compound: CCS(=O)(=O)c1cc(C#N)ccc1C1NC(=O)N(c2cccc(C(F)(F)F)c2)C2=C1C(=O)CC2 (stereo not shown)
## Output 4

## Input Return reported CL (predicted human hepatic in vivo blood clearance). Input compound: CNC(=O)N1C(=O)N(c2cccc(C(F)(F)F)c2)C2=C(C(=O)CC2)[C@H]1c1ccc(C#N)cc1S(C)(=O)=O
## Output 0

New cases:
## Input Return reported CL (predicted human hepatic in vivo blood clearance). Input compound: C[C@H](O)CNC(=O)N1C(=O)N(c2cccc(C(F)(F)F)c2)C2=C(C(=O)CC2)C1c1ccc(C#N)cc1 (stereo partly shown)
## Output 2

## Input Return reported CL (predicted human hepatic in vivo blood clearance). Input compound: N#Cc1ccc([C@@H]2C3=C(CCC3=O)N(c3cccc(C(F)(F)F)c3)C(=O)N2C(=O)N[C@H]2COC[C@@H]2O)cc1
## Output 0
